assay.explanation: Reversal of cytokine withdrawal protection in IL3 dependent Bcl-xL overexpressing mouse FL5.12 cells
measure: EC50 (nM)

1) CN(C)CC[C@H](CSc1ccccc1)Nc1ccc(S(=O)(=O)NC(=O)c2ccc(N3CCC(C)(C)CC3)cc2)cc1[N+](=O)[O-] 470

* * *

target.entity: Apoptosis regulator Bcl-2 (Homo sapiens, UniProt P10415)
Sequence (P10415 whole entry): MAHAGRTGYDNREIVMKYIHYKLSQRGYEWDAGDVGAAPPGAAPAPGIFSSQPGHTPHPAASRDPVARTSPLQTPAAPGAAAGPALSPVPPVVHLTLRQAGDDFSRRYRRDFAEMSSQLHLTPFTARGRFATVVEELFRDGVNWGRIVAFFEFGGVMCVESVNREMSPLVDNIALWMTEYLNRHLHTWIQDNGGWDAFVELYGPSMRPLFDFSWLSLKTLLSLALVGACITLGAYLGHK
pKi: −log10 of the molar value.
measure: pKi

1. Cc1ccc(S(=O)(=O)N2CCN(c3ccc(C(=O)NS(=O)(=O)c4ccc(N[C@H](CCN(C)C)CSc5ccccc5)c([N+](=O)[O-])c4)cc3)CC2)cc1 8.21
2. COc1ccccc1C=C1CCN(c2ccc(C(=O)NS(=O)(=O)c3ccc(N[C@H](CCN(C)C)CSc4ccccc4)c([N+](=O)[O-])c3)cc2)CC1 8.70
3. CN(C)CC[C@H](CSc1ccccc1)Nc1ccc(S(=O)(=O)NC(=O)c2ccc(N3CCN(Cc4ccccc4S(C)(=O)=O)CC3)cc2)cc1[N+](=O)[O-] 8.34

Value source: ChEMBL document CHEMBL1141382
